# measured on: rat FAAH (Rattus norvegicus)
# Construct: made in house; host or cells: E. coli
# Sequence (P97612 whole entry): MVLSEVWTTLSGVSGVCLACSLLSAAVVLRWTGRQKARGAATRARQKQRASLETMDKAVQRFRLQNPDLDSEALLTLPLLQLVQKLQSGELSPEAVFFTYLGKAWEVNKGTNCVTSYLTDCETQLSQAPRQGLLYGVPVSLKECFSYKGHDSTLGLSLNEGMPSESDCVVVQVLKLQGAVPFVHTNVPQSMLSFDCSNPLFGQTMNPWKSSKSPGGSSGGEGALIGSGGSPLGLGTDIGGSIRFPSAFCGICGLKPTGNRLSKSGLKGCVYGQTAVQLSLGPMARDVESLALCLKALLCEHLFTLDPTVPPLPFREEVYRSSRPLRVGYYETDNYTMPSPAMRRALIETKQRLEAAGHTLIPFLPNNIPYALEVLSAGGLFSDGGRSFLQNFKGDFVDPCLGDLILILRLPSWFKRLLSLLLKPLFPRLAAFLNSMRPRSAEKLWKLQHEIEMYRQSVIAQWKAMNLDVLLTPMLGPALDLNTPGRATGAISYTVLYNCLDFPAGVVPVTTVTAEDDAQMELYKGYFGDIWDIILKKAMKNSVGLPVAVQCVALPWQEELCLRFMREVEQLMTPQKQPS
# procedure details: FAAH assay, rat FAAH enzyme inactivation (kinact/Ki)
# Type: biochemical
# experimental context: pH 7.4, in vitro, oleamide 50 μM, 30° C., read-out: rFAAH kinact/Ki
quantity kind: kinact/KI (M⁻¹ s⁻¹)
Enter your answer as a number in M⁻¹ s⁻¹; do not include the unit.

> print(dat)
                                   compound  quantity.kind  readout.value
1  Cc1noc(NC(=O)N2CCC3(CC2)CC(c2cccc(OC(F)(F)F)c2)CO3)c1C (single isomer, unassigned) [Example 33]      kinact/KI           4070
2  Cc1noc(NC(=O)N2CCC3(CC2)CC(c2cccc(-c4ccc(F)cc4)c2)CO3)c1C (racemic)      kinact/KI           1110

## Task Identify kinact/KI associated with the compound Cn1nnnc1NC(=O)N1CCC2(CC1)C[C@@H](c1ccc(OCc3cccc(F)c3)cc1)CO2
## Result 4110
